Kindly supply the reported AIRE transcriptional activation functional score values for the records listed here.
B1: library; numbered along this chain (parent)
chain: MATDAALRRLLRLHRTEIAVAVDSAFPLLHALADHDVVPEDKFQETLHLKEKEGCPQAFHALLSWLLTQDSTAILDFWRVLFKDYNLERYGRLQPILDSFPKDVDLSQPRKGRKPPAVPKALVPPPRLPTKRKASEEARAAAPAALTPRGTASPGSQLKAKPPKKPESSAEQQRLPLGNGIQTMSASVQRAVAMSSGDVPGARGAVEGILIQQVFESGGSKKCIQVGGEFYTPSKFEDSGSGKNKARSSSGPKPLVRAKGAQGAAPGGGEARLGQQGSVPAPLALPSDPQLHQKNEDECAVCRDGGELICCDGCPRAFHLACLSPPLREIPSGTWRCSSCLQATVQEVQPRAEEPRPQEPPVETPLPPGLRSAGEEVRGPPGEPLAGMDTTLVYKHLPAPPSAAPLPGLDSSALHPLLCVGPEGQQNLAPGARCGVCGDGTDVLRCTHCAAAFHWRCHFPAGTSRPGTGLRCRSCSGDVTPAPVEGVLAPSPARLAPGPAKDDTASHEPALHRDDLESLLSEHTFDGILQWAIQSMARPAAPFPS

Variants of: B1
Assay: AIRE transcriptional activation functional score (insulin promoter-GFP; nonsense median 0, synonymous median 1) (normalised score); higher = higher AIRE activity (more reporter activation)
Settings: with insulin promoter-GFP reporter in HEK293

Previously resolved entries follow.
P176L	1.6
A265F	1.53
P154E	0.475
F82W	-0.557
V420E	0.728

Answer for every listed entry: what is its AIRE transcriptional activation functional score? The entries follow.
1. A541C
2. Q57C
3. K42H
4. P266K
5. L47G
6. L444M
7. Q57V

1.43
-0.141
0.0173
1.19
0.313
-0.874
0.739
